# measurementTarget: hGPR120 (Homo sapiens, UniProt Q5NUL3)
# Construct: expressed in transfected cells; host or cells: CHO-K1
# Sequence (Q5NUL3 1-361): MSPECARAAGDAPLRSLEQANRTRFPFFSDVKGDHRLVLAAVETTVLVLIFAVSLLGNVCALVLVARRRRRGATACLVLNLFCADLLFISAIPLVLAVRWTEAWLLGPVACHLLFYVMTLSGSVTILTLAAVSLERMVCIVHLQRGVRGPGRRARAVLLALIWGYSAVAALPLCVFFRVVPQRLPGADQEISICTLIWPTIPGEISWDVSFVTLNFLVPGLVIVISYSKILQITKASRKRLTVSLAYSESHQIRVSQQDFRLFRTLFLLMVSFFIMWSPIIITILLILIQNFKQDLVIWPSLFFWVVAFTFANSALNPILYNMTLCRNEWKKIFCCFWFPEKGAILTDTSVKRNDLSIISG
# protocolText: Measurement of Activity of GPR120 Agonist (Cell-Based Assay), Calcium 5 dye fluorescence
# runConditions: CHO-K1 cells expressing Ga16 and hGPR120
pEC50: −log10 of the molar value.
Field: pEC50. Provide a value for each of the compounds that follow.

[ask] Recall and state the measured pEC50 for Cc1cc(OC2CCC2)nc(-c2cc(F)c(N3CC(CC(=O)O)C3)c(F)c2)n1 .
[reply] 5.70 to 6.70

[ask] Recall and state the measured pEC50 for CC(CCCC(=O)O)c1c(F)cc(-c2cccnc2SC2CCCC2)cc1F (stereo not drawn) .
[reply] > 6.70

[ask] Recall and state the measured pEC50 for O=C(O)CC1CCN(c2c(F)cc(-c3cccc(COC4CCC4)n3)cc2F)CC1 .
[reply] < 4.70

[ask] Recall and state the measured pEC50 for O=C(O)CCCOc1c(F)cc(-n2ccc3c(F)cccc32)cc1F .
[reply] > 6.70

[ask] Recall and state the measured pEC50 for O=C(O)CC1CCN(c2c(F)cc(-c3cccnc3OCC3CC3)cc2F)CC1 .
[reply] > 6.70

[ask] Recall and state the measured pEC50 for O=C(O)CC1CCN(c2c(F)cc(-c3nc(OC4CCC4)cs3)cc2F)CC1 .
[reply] > 6.70

[ask] Recall and state the measured pEC50 for O=C(O)Cc1cnn(-c2ccc(-c3cccnc3SC3CCC3)cc2)c1 .
[reply] 4.70 to 5.70

[ask] Recall and state the measured pEC50 for CN(CCCC(=O)O)c1c(F)cc(-c2cccc3c2OC2(CCCC2)O3)cc1F .
[reply] > 6.70

[ask] Recall and state the measured pEC50 for CCCCOc1cncc(-c2cc(F)c(N3CCC(CC(=O)O)CC3)c(F)c2)n1 .
[reply] > 6.70

[ask] Recall and state the measured pEC50 for CC(C)Oc1cncc(-c2cc(F)c(OCCCC(=O)O)c(Cl)c2)n1 .
[reply] > 6.70

[ask] Recall and state the measured pEC50 for CN(CCCC(=O)O)c1c(F)cc(-c2ccc(COCC3CC3)o2)cc1F .
[reply] 5.70 to 6.70

[ask] Recall and state the measured pEC50 for O=C(O)CCC1CCc2cc(-c3cccnc3SC3CCC3)ccc2O1 (stereo not drawn) .
[reply] > 6.70

[ask] Recall and state the measured pEC50 for O=C(O)CCc1ccc2cc(-c3cccc(Oc4ccccc4F)n3)ccc2c1 .
[reply] 5.70 to 6.70

[ask] Recall and state the measured pEC50 for O=C(O)CC1CN(c2c(F)cc(-c3cncc(OC4CCC4)n3)cc2F)C1 .
[reply] > 6.70

[ask] Recall and state the measured pEC50 for O=C(O)CC1CCN(c2c(F)cc(-c3cccc(OCC4CC4)n3)cc2F)CC1 .
[reply] > 6.70

[ask] Recall and state the measured pEC50 for CCSc1ncccc1-c1cc(F)c(N(C)CCCC(=O)O)c(F)c1 .
[reply] > 6.70

[ask] Recall and state the measured pEC50 for CC(C)Oc1cccc(-c2cc(F)c(OCCCC(=O)O)c(Cl)c2)n1 .
[reply] > 6.70

[ask] Recall and state the measured pEC50 for CCOc1cc(C)nc(-c2cc(F)c(N3CCC(CC(=O)O)CC3)c(F)c2)n1 .
[reply] > 6.70
